- Test system: AncSZ;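 note: 11-residue human phosphosite peptides and single-mutation variants displayed on the E. coli surface, counted by deep sequencing, each peptide's frequency after selection divided by its frequency in the unselected input library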;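 note: frequency after pTyr selection over input frequency; kinase dosed for 20-30% of maximal phosphorylation in three min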
- METHOD DESCRIPTION: phosphorylation enrichment, bacterial display (enrichment ratio); higher = better substrate or ligand; peptides without Tyr show the background
ASSAY READOUT: phosphorylation enrichment

POLYMER SEQUENCE | RECORDED NUMBER
CRAVKYLQMVD [AVPR2_Y117_G122D] | 0.71
IGEVVYQWAVM [GRIN2A_Y502_R504W] | 2.06
QRRYVYYYSYL [PTEN_Y176] | 1.88
SGETKYNPTEA [NBEAL2_Y2748_E2747K] | 0.767
TSHKGYVAFLE [CARD9_Y76_G72S] | 0.707
ERQIRYLNHQL [CEP152_Y268] | 0.557
WCSNDYLGMSQ [ALAS2_Y199_R204Q] | 2.88
SVTCTYSPALK [TP53_Y126_N131K] | 0.97
RLLVLYPWTQR [HBB_Y36_V35L] | 1.42
WRPFGYPRCRR [BCS1L_Y181_R184C] | 0.599
SQPASYQRRFL [PPIG_Y320_L324F] | 0.768
RRNTYYASIAK [ACADM_Y353] | 0.902
FFRNVYHLASV [RBL1_Y796_K794N_YF] | 0.803
NGTVTYAIVAG [CDH23_Y1672] | 0.99
